- METHOD: NIH-3T3 fibroblast cytotoxicity, dose response, cytotoxicity control, cell-based, fluorescence, Alamar Blue, secondary assay (AID 2327);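 further: NIH-3T3 mouse fibroblasts cultured with fluconazole at 8 µg/mL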
- Format: functional
Active and inactive are the calls of the source.
Labels: active, inactive

compound=Nc1ncc(Br)cc1S(=O)(=O)Nc1cc(C(F)(F)F)cc(C(F)(F)F)c1 class=active
compound="CN1CCN(C(c2ccccn2)c2cc(Cl)c3cccnc3c2O)CC1 (stereo not given)" class=active
compound=COc1ccc2c(c1)CCN=C2Cc1ccc(OC)c(OC)c1 class=active
compound=COc1cccc(C(=O)Nc2nnc(-c3ccc(F)cc3)o2)c1 class=inactive

###

// AC50 collected for Cytochrome P450 1A2 (Homo sapiens)
PROPERTY MEASURED: AC50

compound="CCC/C=C(\\CCC)C(NC(=O)c1ccc(C(F)(F)F)cc1)c1ccccc1 (centres undefined)" observed_result="25.1 µM (inconclusive)"
compound=CN1CCC(c2c[nH]c3ccc(O)cc23)CC1 observed_result="31.6 µM (inconclusive)"
compound="Cc1ccc(C(=O)NC(=S)N2CC(C)OC(C)C2)cc1[N+](=O)[O-] (centres undefined)" observed_result="15.8 µM (inconclusive)"
compound=C=CCNC(=O)/C(=C\c1ccc2c(c1)OCO2)NC(=O)c1ccc(Br)cc1 observed_result="14.1 µM (inconclusive)"

###

- METHOD: non-specific 3'UTR reporter inhibition in Clone20-Shn3RL – cell-based, Renilla luciferase, cherry-picked, counter-screen for Shn3 inhibitor project, dose response (AID 624133)
- Type: functional
The source made the active and inactive calls.
PROPERTY MEASURED: AC50

compound=CN(c1cccc(NC(=O)CN(c2ccc(C34CC5CC(CC(C5)C3)C4)cc2)S(C)(=O)=O)c1)S(C)(=O)=O observed_result="7.86 µM (active)"
compound="CC(C)N1CCN(Cc2c[nH]c3ccccc23)CC1CCO (configuration not stated)" observed_result="28.6 µM (active)"
compound=CC1CCN(Cc2ccc(-c3nnn(CC(=O)Nc4ccccc4Cl)n3)cc2)CC1 observed_result="3.25 µM (active)"
compound=COc1ccc(C2=NS(=O)(=O)N(C)C(C(=O)N3CCc4ccccc4C3)=C2)cc1OC observed_result="4.43 µM (active)"
compound=Cc1ccc(C(=O)N2c3ccccc3N(Cc3ccccc3)C(=O)C2(C)C)cc1 observed_result="4.11 µM (active)"
compound=Cc1ccc(S(=O)(=O)Nc2ccc3ncccc3c2)cc1 observed_result="29.3 µM (active)"
compound=COc1ccc(N2CCN(C(=O)CN3CCN(c4nc(-c5ccc(F)cc5)cs4)CC3)CC2)cc1 observed_result="1.16 µM (active)"

###

- MEASURED ON: Heat shock factor protein 1 (Mus musculus)
- Sequence (P38532 whole entry): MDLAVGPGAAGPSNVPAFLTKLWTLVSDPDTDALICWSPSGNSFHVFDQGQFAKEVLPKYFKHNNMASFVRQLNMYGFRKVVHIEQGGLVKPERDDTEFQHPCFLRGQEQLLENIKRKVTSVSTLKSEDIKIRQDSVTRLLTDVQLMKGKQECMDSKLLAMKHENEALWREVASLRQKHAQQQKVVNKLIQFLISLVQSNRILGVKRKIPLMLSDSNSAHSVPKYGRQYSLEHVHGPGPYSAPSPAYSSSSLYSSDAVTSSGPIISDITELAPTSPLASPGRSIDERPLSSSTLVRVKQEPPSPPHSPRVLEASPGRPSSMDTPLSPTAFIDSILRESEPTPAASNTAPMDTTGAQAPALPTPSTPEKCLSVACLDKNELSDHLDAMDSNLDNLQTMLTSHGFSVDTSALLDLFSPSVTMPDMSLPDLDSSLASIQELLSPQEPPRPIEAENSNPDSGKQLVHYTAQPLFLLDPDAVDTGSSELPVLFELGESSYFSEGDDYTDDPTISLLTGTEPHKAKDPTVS
- METHOD: enhancement of HSF1-driven luciferase signal – cell-based, NIH3T3, luminescence, dose retest, confirmation (AID 435004);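 further: stress induced by proteasome inhibitor MG132 added 30 min after compound; luciferase reporter driven by HSF1 response element in NIH3T3 cells; actives raise luminescence as potentiators of the MG132 stress response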
- Assay type: functional
The source made the active and inactive calls.
EC50 values, listed per item
PROPERTY MEASURED: EC50

compound=O=C(CCl)c1ccc2c(c1)CCN2C(=O)C1CCCCC1 measured_on="Heat shock factor protein 1 (Mus musculus)" observed_result="4.1 µM (inconclusive)"
compound=O=S(=O)(c1ccc(-n2cnnn2)cc1)N1CCNCC1 measured_on="Heat shock factor protein 1 (Mus musculus)" observed_result="> 260 µM (inactive)"
compound=Clc1ccc(CNC2CCN(Cc3ccccc3)CC2)cc1 measured_on="Heat shock factor protein 1 (Mus musculus)" observed_result="> 260 µM (inactive)"
compound="COCCNC(=O)C(c1ccc(C)cc1)N(C(=O)CCC(=O)Nc1ccccn1)c1ccccc1C (stereo unspecified)" measured_on="Heat shock factor protein 1 (Mus musculus)" observed_result="> 260 µM (inactive)"
compound=CCCc1cc(=O)oc2cc(C)c(CN3CCCC3)c(O)c12 measured_on="Heat shock factor protein 1 (Mus musculus)" observed_result="> 260 µM (inactive)"
compound="CC(C)C(C(=O)NCc1ccccc1)N(CC1CCCO1)C(=O)CNS(=O)(=O)c1ccccc1 (stereo unspecified)" measured_on="Heat shock factor protein 1 (Mus musculus)" observed_result="> 260 µM (inactive)"

###

- MEASURED ON: UniProt P61088
- Sequence (P61088 whole entry): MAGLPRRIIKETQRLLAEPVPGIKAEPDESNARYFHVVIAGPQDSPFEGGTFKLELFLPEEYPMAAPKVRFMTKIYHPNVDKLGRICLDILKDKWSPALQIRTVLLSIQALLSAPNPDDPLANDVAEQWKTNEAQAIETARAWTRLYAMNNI
- Assay type: functional
Calls of active or inactive are those of the source.
Possible outcomes: Yes (active), No (inactive)

compound=CC(=O)Nc1ccc(NC(=O)c2nc(S(=O)(=O)Cc3cccc(C)c3)ncc2Cl)cc1 class=Yes
compound="NC(=O)c1nsc(C(=O)N(c2cccc(F)c2)C(C(=O)NC2CCCC2)c2ccc(O)cc2)c1N (stereo not drawn)" class=No
compound="CCN1C(=O)CC(c2ccccc2)N(C2CCCC2)c2nc(Nc3ccc(C(=O)NC4CCN(C)CC4)cc3OC)ncc21 (stereo not drawn)" class=No
compound=C#CCOCCOCCOCCNc1nc(N2CCN(C(=O)CCCCCCCCCCNC(=O)[C@@H](CCSC)n3cc(CCO)nn3)CC2)nc(N2CCN(C(=O)CCCCCCCCCCNC(=O)[C@H](CCCN=C(N)N)n3cc(C[C@@H](C)CC)nn3)CC2)n1 class=Yes
compound=Cc1ccc(C(=O)N/C(=C\c2ccc(-c3ccc(Cl)cc3)o2)C(=O)NCCCN(C)C)cc1 class=No
compound="CC(C)CC(C(=O)NC1CCCC1)N(Cc1ccc2c(c1)OCO2)C(=O)c1snc(C(N)=O)c1N (stereo not drawn)" class=No
compound=CCOc1ccc2nc(NC3=NC(C)=CC(C)(C)N3)nc(C)c2c1 class=No
compound=OCCN1CCN(CC/C=C2/c3ccccc3Sc3ccc(C(F)(F)F)cc32)CC1 class=No

###

- METHOD: viability of PTEN-deleted HCT116 cells – cell-based, HCT116 PTEN knockout, dose response (AID 1047);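 further: HCT116 colon tumor cells with PTEN knocked out; cells exposed to compound for 60 hours before readout; potency for loss of cell viability measured by luminescence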
- Type: functional
Calls of active or inactive are those of the source.
Entries annotated with measured EC50
PROPERTY MEASURED: EC50

compound=COc1ccc(Oc2c(Cl)cnn(-c3ccc(Cl)c(Cl)c3)c2=O)cc1 observed_result="91.6 µM (active)"
compound=CC(C)Cn1c(N)c(C(=O)NCc2cccs2)c2nc3ccccc3nc21 observed_result="36 µM (active)"
compound=CCC(=O)Nc1cccc(C(=O)/C=C/c2ccccc2)c1 observed_result="2.4 µM (active)"
compound=Oc1ccc(Cl)cc1Cc1cc(Cl)ccc1O observed_result="15.7 µM (active)"
compound=O=C(c1cccc([N+](=O)[O-])c1)N1CCN(c2cccc(Cl)c2)CC1 observed_result="4.8 µM (active)"
compound="COc1ccc(C2NCCc3c2[nH]c2ccccc32)cc1COc1ccc(F)cc1 (configuration not stated)" observed_result="6.19 µM (active)"
compound=COc1ccccc1CN(Cc1nc(O)c2ccccc2n1)S(=O)(=O)c1ccc2ccccc2c1 observed_result="16.7 µM (active)"

###

- MEASURED ON: Prothrombin (Homo sapiens)
- METHOD: Thrombin 1536 HTS Dose Response Confirmation. [Related pubchem assays: 1046 (Thrombin 1536 HTS; hits were confirmed in this assay)]
- Format: functional
The source made the active and inactive calls.
PROPERTY MEASURED: IC50

molecule=CC(=O)NNC(=S)NC(=O)c1ccccc1 property_measured=IC50 observed_result="> 50 µM (inconclusive)"
molecule=O=C(O)c1cc([N+](=O)[O-])ccc1NCc1ccccc1Cl property_measured=IC50 observed_result="> 50 µM (not active)"
molecule=COc1ccc(CNc2nc(-c3cccnc3)nn2C(=O)c2ccco2)cc1 property_measured=IC50 observed_result="1.19 µM (active)"
molecule="CCOc1ccc(C(=O)NCC(=O)OC(C)C(=O)NCc2ccco2)cc1OCC (stereo not given)" property_measured=IC50 observed_result="> 50 µM (not active)"
molecule="S=C(NCc1cccs1)NCC1CCCO1 (stereo not given)" property_measured=IC50 observed_result="> 50 µM (not active)"

###

- MEASURED ON: Calpain-2 catalytic subunit (Sus scrofa, UniProt P43367)
- Sequence (P43367 whole entry): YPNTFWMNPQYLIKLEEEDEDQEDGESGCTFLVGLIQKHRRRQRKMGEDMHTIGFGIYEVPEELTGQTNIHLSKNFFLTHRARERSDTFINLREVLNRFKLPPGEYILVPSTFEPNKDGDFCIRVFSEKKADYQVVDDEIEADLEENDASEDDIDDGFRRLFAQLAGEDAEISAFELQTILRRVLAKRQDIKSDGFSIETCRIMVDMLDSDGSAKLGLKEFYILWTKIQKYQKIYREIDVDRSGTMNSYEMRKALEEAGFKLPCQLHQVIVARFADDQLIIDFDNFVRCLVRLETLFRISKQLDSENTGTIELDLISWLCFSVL
- METHOD: m-calpain protease blockers, concentration series – biochemical, fluorogenic peptide substrate, dose response (AID 1420)
- Assay type: functional
Calls of active or inactive are those of the source.
Consider the following compounds and their measured IC50 readings.
PROPERTY MEASURED: IC50

compound=Cc1cccc(OCCCSc2nc3ccc(C)cc3[nH]2)c1 measured_on="Calpain-2 catalytic subunit (Sus scrofa, UniProt P43367)" observed_result="24.9 µM (not active)"
compound=CC(C)c1ccccc1N=C(S)NN(Cc1ccccc1)c1ccccc1 measured_on="Calpain-2 catalytic subunit (Sus scrofa, UniProt P43367)" observed_result="< 0.4 µM (not active)"
compound=O=S(=O)(N1CCCCC1)N1CCN(c2cc(Cl)ccc2Cl)CC1 measured_on="Calpain-2 catalytic subunit (Sus scrofa, UniProt P43367)" observed_result="4.07 µM (not active)"
compound="Cc1cccc(-n2nnc(C(=O)NC3CCCc4ccccc43)c2N)c1 (stereo not given)" measured_on="Calpain-2 catalytic subunit (Sus scrofa, UniProt P43367)" observed_result="7.05 µM (not active)"
compound="CCOC(=O)N1CCC(Nc2ccc(N3C(=O)C4CCCCC4C3=O)cc2[N+](=O)[O-])CC1 (stereo not given)" measured_on="Calpain-2 catalytic subunit (Sus scrofa, UniProt P43367)" observed_result="7.24 µM (active)"
compound=Cc1cccc(NC(=O)c2cc(S(=O)(=O)c3ccccc3)ccc2Cl)c1 measured_on="Calpain-2 catalytic subunit (Sus scrofa, UniProt P43367)" observed_result="7.13 µM (not active)"
compound=Cc1nn(Cc2ccc(Cl)cc2Cl)c(C)c1NC(=O)c1nn(C)cc1Cl measured_on="Calpain-2 catalytic subunit (Sus scrofa, UniProt P43367)" observed_result="0.917 µM (not active)"
compound=Cc1ccc([N+](=O)[O-])cc1NC(=O)C[n+]1ccccc1 measured_on="Calpain-2 catalytic subunit (Sus scrofa, UniProt P43367)" observed_result="> 50 µM (not active)"
compound=CC(=O)NC1(c2ccccc2)CCN(C(=O)N2CCOCC2)CC1 measured_on="Calpain-2 catalytic subunit (Sus scrofa, UniProt P43367)" observed_result="7.15 µM (not active)"
compound=Cc1nn(-c2ccc(Cl)c(Cl)c2Cl)c(=O)c2ccccc12 measured_on="Calpain-2 catalytic subunit (Sus scrofa, UniProt P43367)" observed_result="22.8 µM (not active)"
